Listed next: entries and their corresponding protein stability index.
B1: SMARCE1 (parent)
chain: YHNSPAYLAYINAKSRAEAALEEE

# Variants of: B1
# experimental protocol: protein stability index of a GFP-peptide fusion (GPS, HEK-293T) (PSI 1-6); higher = more stable;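 further: lentivirally expressed fusions sorted by FACS into six bins by GFP to DsRed ratio, PSI derived from sequencing read proportions per bin multiplied by bin number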
# condition info: c terminus: a fixed tail appended
measured quantity: protein stability index

record_sequence=YHNSPAYSAYINAKSRAEAALEEE measured_quantity="protein stability index" quantitative_readout=3.08
record_sequence=YHNSPAYLAYINAKSRAEAALEEC measured_quantity="protein stability index" quantitative_readout=2.38
record_sequence=YHNSPAYLAYINAKSRAEAALAEE measured_quantity="protein stability index" quantitative_readout=2.7
record_sequence=YHNSPAYLAYINAKSRAEIALEEE measured_quantity="protein stability index" quantitative_readout=2.05
record_sequence=YHNSPAYLAAINAKSRAEAALEEE measured_quantity="protein stability index" quantitative_readout=3.76
record_sequence=FHNSPAYLAYINAKSRAEAALEEE measured_quantity="protein stability index" quantitative_readout=2.02
record_sequence=YHNSPAYLAYINAKSRALAALEEE measured_quantity="protein stability index" quantitative_readout=1.61
record_sequence=YHNSPAYLAYINAKSRAEAALESE measured_quantity="protein stability index" quantitative_readout=1.54
record_sequence=YHNSPAYLAYINCKSRAEAALEEE measured_quantity="protein stability index" quantitative_readout=3.05
record_sequence=YHNSPAYLAYINAKSRAEAAPEEE measured_quantity="protein stability index" quantitative_readout=3.6
record_sequence=YHNSPAYLAYINAKSRAWAALEEE measured_quantity="protein stability index" quantitative_readout=2.76
